Attribution: ChEMBL document CHEMBL1141973

assay summary: Binding affinity for nicotinic acetylcholine receptor alpha4-beta2 from mouse M10 cells; n=3
Type: cell-based
This listing pairs molecules with measured Ki.

Reference set (4 entries):
c1cncc([C@@H]2CCCN2)c1 (racemic)    14 nM
Cc1cc2c(cn1)C1CCC(CC2)N1 (racemic)    0.39 nM
CN1CCC[C@@H]1c1cccnc1    2.5 nM
c1cc2c(cn1)C1CCC(CC2)N1 (racemic)    1.3 nM

input: Dear colleague, I am looking for the recorded Ki of the following molecule: Clc1ccc(C2CC3CCC2N3)cn1 (racemic) [EPIBATIDINE]
output: 0.035 nM

---

pKd by entry:
assay summary: Dissociation constant for nicotinic acetylcholine receptor alpha4-beta2 of mouse M10 cells; n=3
Type: cell-based
Please report pKd as the negative decimal logarithm of the molar concentration, giving only the number.

input: Record request: pKd value, item c1cc2c(cn1)C1CCC(CC2)N1 (racemic)
output: 8.51

input: Please look up its pKd: CN1CCC[C@@H]1c1cccnc1 [R-NICOTINE]
output: 8.42

input: // returns reported pKd for input Clc1ccc(C2CC3CCC2N3)cn1 (racemic) [EPIBATIDINE]
output: 8.51

input: So what does the record say about pKd for Cc1cc2c(cn1)C1CCC(CC2)N1 (racemic) ?
output: 9.41
